pKi: −log10 of the molar value.
pKi values for Tyrosine-protein kinase JAK2 (Homo sapiens), compiled from several publications.

Below, 3 compounds whose answers are already recorded.
> print(dat)
                                   compound  endpoint.result
1  c1nc(C2CC3CCC2C3)c2cc[nH]c2n1 (stereo not drawn)           > 6.30
2  OC[C@H]1CCCN1c1nc(-c2c[nH]c3ncncc23)ncc1F     5.30 to 6.30
3  CC1CCC(C(=O)Nc2nc(-c3ncnc4[nH]ccc34)cs2)CC1 (stereo not drawn)           > 7.00

In: Entry CC1CCC(C)N1C(=O)c1cc(-c2ncnc3[nH]ccc23)c[nH]1 (stereo not drawn) has what pKi?
Out: > 7.00

In: Entry "CC(=O)N1[C@H](C)CN(c2cccc(-c3c[nH]c4ncncc34)n2)C[C@@H]1C" has what pKi?
Out: > 6.30

In: Entry "COc1ccc(CNc2nc(-c3c(F)cccc3F)nc3c2C(=O)NC3)cc1" has what pKi?
Out: 6.00 to 7.00

In: Entry "Cc1cc(Nc2cc(N3CCC3)nc(Sc3ccc(NC(=O)c4ccccc4Cl)cc3)n2)[nH]n1" has what pKi?
Out: 6.42

In: Entry "O=C(c1cc(-c2ncnc3[nH]cc(Cl)c23)c[nH]1)N(CC1CCC1)CC(F)(F)F" has what pKi?
Out: > 7.00

In: Entry "Cn1cc(-c2ncnc3[nH]ccc23)cc1C(=O)N(CCC(F)(F)F)CC1CC1" has what pKi?
Out: > 7.00

###

Ki values for Tyrosine-protein kinase JAK2 (Homo sapiens, UniProt O60674), compiled from several publications.

> print(dat)
                                   compound  endpoint.result
1  CCOC(=O)C1(c2ccc(OC)c(F)c2)Nc2ccccc2-c2ccnc3[nH]cc1c23 (stereo not shown)         < 250 nM
2  O=C1NCc2nc(-c3c(F)cccc3F)cc(-n3cccn3)c21   100 to 1000 nM
3  CCN(Cc1ccccc1)C(=O)c1ccc(-c2ncnc3[nH]ccc23)o1         < 100 nM

Now turn to the next compound.
In: Recorded Ki for CC1CC1COc1nc(N[C@@H](C)c2ccc(F)cc2F)cc(-c2cnn3cccnc23)n1 (stereo partly shown) with Tyrosine-protein kinase JAK2 (Homo sapiens, UniProt O60674), please?
Out: < 10 nM

###

pKi values for Tyrosine-protein kinase JAK2 (Homo sapiens), compiled from several publications.
pKi: −log10 of the molar value.

> print(dat)
                                   molecule  endpoint.result
1  O=C(NCC(F)(F)F)[C@H]1CCCCN1c1cnc(-c2c[nH]c3ncncc23)nc1           > 6.30
2  CC[C@@H]1CC[C@@H](CC)N1C(=O)c1cc(-c2ncnc3[nH]ccc23)co1           > 7.00

In: Entry c1ccc2c(c1)NC(C1CCNCC1)c1c[nH]c3nccc-2c13 (centres unmarked) has what pKi?
Out: 5.60 to 6.60

In: Entry "[2H]C1([2H])N(c2ccn(-c3cc(-c4c(F)cccc4C#N)nc4c3C(=O)NC4)n2)C([2H])([2H])[C@]([2H])(O)C1([2H])[2H]" has what pKi?
Out: 7.00 to 8.00

In: Entry Fc1cccc(F)c1C1Nc2ccccc2-c2c(Cl)cnc3[nH]cc1c23 (centres unmarked) has what pKi?
Out: 5.60 to 6.60
